- Test system: SARS-CoV-2 strain BavPat1
- EXPERIMENTAL CONTEXT: Vero-E6 cells
Non-standard residues stand in square brackets, D forms with d. Residues, ends and D or L forms follow the SMILES beside them. *: point of attachment. Nva = CCC[C@H](N)C(=O)O; Cbz = O=C(OCc1ccccc1)*
OBSERVABLE: balance between virus inhibition and cytotoxicity (selectivity index), in words

[[record]]
compound = "CC(C)C[C@@H](C=O)NC(=O)[C@H](CC(C)C)NC(=O)[C@H](CC(C)C)NC(=O)c1cnccn1"
experimental_target = "SARS-CoV-2 strain BavPat1"
reported_measurement = "advantageous balance"

[[record]]
compound = "CC(C)C[C@@H](C=O)NC(=O)[C@H](CC(C)C)NC(=O)[C@H](Cc1ccccc1)NC(=O)OCc1ccccc1 [Compound 4] (Cbz-Phe-Leu-Leu-aldehyde)"
experimental_target = "SARS-CoV-2 strain BavPat1"
reported_measurement = "best selectivity index"

[[record]]
compound = "CC(C)C[C@@H](C=O)NC(=O)[C@H](CC(C)C)NC(=O)[C@H](CC(C)C)NC(=O)OCc1ccccc1 [Compound 1] (Cbz-Leu-Leu-Leu-aldehyde)"
experimental_target = "SARS-CoV-2 strain BavPat1"
reported_measurement = "advantageous balance"

[[record]]
compound = "CC(C)C[C@@H](C=O)NC(=O)[C@H](CC(C)C)NC(=O)[C@H](CC(C)C)NC(=O)Cc1ccc(F)cc1F"
experimental_target = "SARS-CoV-2 strain BavPat1"
reported_measurement = "advantageous balance"


// next entry
IN: Provide only the value of recorded balance between virus inhibition and cytotoxicity (selectivity index), in words for CCC[C@@H](C=O)NC(=O)[C@H](CC(C)C)NC(=O)[C@H](CC(C)C)NC(=O)OCc1ccccc1 [Compound 2] (Cbz-Leu-Leu-[Nva]-aldehyde)
OUT: best selectivity index

---

- System: SARS-CoV-2 strain BavPat1
- EXPERIMENT SUMMARY: microbe, parasite or virus in culture
- EXPERIMENTAL CONTEXT: Severe acute respiratory syndrome coronavirus 2, Vero C1008, 48 h
Residues, ends and D or L forms follow the SMILES beside them. *: point of attachment. Cbz = O=C(OCc1ccccc1)*
OBSERVABLE: EC50 (nM)
Lab book: enter the figure in nM, no units written.

[[record]]
compound = "CC(C)C[C@H](NC(=O)OCc1ccccc1)C(=O)N[C@@H](CC(C)C)C(=O)N[C@H](C=O)Cc1ccccc1 [Compound 5] (Cbz-Leu-Leu-Phe-aldehyde)"
observable = "EC50"
reported_measurement = 60


Next compound, please.
IN: Determine its reported EC50: CCC(CC)COC(=O)[C@H](C)N[P@](=O)(OC[C@H]1O[C@@](C#N)(c2ccc3c(N)ncnn23)[C@H](O)[C@@H]1O)Oc1ccccc1 [Rem, Remdesivir, reference compound]
OUT: 2180

---

- System: SARS-CoV-2 strain BavPat1
- EXPERIMENTAL CONTEXT: Vero-E6 cells
Residues, ends and D or L forms follow the SMILES beside them. *: point of attachment. Cbz = O=C(OCc1ccccc1)*
OBSERVABLE: balance between virus inhibition and cytotoxicity (selectivity index), in words

[[record]]
compound = "CC(C)C[C@@H](C=O)NC(=O)[C@H](Cc1ccccc1)NC(=O)[C@H](CC(C)C)NC(=O)OCc1ccccc1 [Compound 6] (Cbz-Leu-Phe-Leu-aldehyde)"
reported_measurement = "best selectivity index"

[[record]]
compound = "CC(=O)N[C@@H](CC(C)C)C(=O)N[C@@H](CC(C)C)C(=O)N[C@H](C=O)CC(C)C [Compound 3] (Ac-Leu-Leu-Leu-aldehyde)"
reported_measurement = "best selectivity index"

[[record]]
compound = "CC(C)C[C@H](NC(=O)OCc1ccccc1)C(=O)N[C@@H](CC(C)C)C(=O)N[C@H](C=O)Cc1ccccc1 [Compound 5] (Cbz-Leu-Leu-Phe-aldehyde)"
reported_measurement = "best selectivity index"


---

- System: SARS-CoV-2 strain BavPat1
- EXPERIMENT SUMMARY: SARS-CoV-2 replication inhibition in Caco-2 cells (viral RNA RT-qPCR)
- EXPERIMENTAL CONTEXT: Severe acute respiratory syndrome coronavirus 2, Caco-2, 48 h
Non-standard residues stand in square brackets, D forms with d. Residues, ends and D or L forms follow the SMILES beside them. *: point of attachment. Nva = CCC[C@H](N)C(=O)O; Cbz = O=C(OCc1ccccc1)*
OBSERVABLE: EC50 (nM)
Give your result in nM as a bare value.

Reference set (2 entries):
[[record]]
compound = "CC(C)C[C@H](NC(=O)OCc1ccccc1)C(=O)N[C@@H](CC(C)C)C(=O)N[C@H](C=O)Cc1ccccc1 [Compound 5] (Cbz-Leu-Leu-Phe-aldehyde)"
observable = "EC50"
result_units = "nM"
reported_measurement = 90

[[record]]
compound = "CCC[C@@H](C=O)NC(=O)[C@H](CC(C)C)NC(=O)[C@H](CC(C)C)NC(=O)OCc1ccccc1 [Compound 2] (Cbz-Leu-Leu-[Nva]-aldehyde)"
observable = "EC50"
result_units = "nM"
reported_measurement = 130


In the following, a different compound is considered.
IN: Given the compound CC(C)C[C@@H](C=O)NC(=O)[C@H](CC(C)C)NC(=O)[C@H](CC(C)C)NC(=O)OCc1ccccc1 [Compound 1] (Cbz-Leu-Leu-Leu-aldehyde) , write its reported EC50.
OUT: 120

---

- EXPERIMENT SUMMARY: in vitro
- EXPERIMENTAL CONTEXT: African green monkey
Residues, ends and D or L forms follow the SMILES beside them. *: point of attachment. Cbz = O=C(OCc1ccccc1)*
OBSERVABLE: CC50 at 2 days (nM)
Number only, in nM; omit the unit.

[[record]]
molecule = "CC(=O)N[C@@H](CC(C)C)C(=O)N[C@@H](CC(C)C)C(=O)N[C@H](C=O)CC(C)C [Compound 3] (Ac-Leu-Leu-Leu-aldehyde)"
result_units = "nM"
reported_measurement = 13600

[[record]]
molecule = "CC(C)C[C@@H](C=O)NC(=O)[C@H](Cc1ccccc1)NC(=O)[C@H](CC(C)C)NC(=O)OCc1ccccc1 [Compound 6] (Cbz-Leu-Phe-Leu-aldehyde)"
result_units = "nM"
reported_measurement = 1680

[[record]]
molecule = "CC(C)C[C@@H](C=O)NC(=O)[C@H](CC(C)C)NC(=O)[C@H](CC(C)C)NC(=O)OCc1ccccc1 [Compound 1] (Cbz-Leu-Leu-Leu-aldehyde)"
result_units = "nM"
reported_measurement = 2790


IN: Supply CC50 at 2 days value. Item: CC(C)C[C@H](NC(=O)[C@H](Cc1ccccc1)NC(=O)c1cnccn1)B(O)O [Compound 9, reference compound]
OUT: 230

IN: Retrieve CC50 at 2 days measured for CC(C)C[C@@H](C=O)NC(=O)[C@H](CC(C)C)NC(=O)[C@H](Cc1ccccc1)NC(=O)OCc1ccccc1 [Compound 4] (Cbz-Phe-Leu-Leu-aldehyde) and print it.
OUT: 6460

---

- Tested on: SARS-CoV-2 strain BavPat1
- EXPERIMENTAL CONTEXT: Vero-E6 cells
Non-standard residues stand in square brackets, D forms with d. Residues, ends and D or L forms follow the SMILES beside them. *: point of attachment. Nva = CCC[C@H](N)C(=O)O; Cbz = O=C(OCc1ccccc1)*
OBSERVABLE: SI = CC50/EC50

# annotated cases, reported SI = CC50/EC50 shown
[[record]]
compound = "CC(=O)N[C@@H](CC(C)C)C(=O)N[C@@H](CC(C)C)C(=O)N[C@H](C=O)CC(C)C [Compound 3] (Ac-Leu-Leu-Leu-aldehyde)"
observable = "SI = CC50/EC50"
reported_measurement = ">45.2"

[[record]]
compound = "CCC[C@@H](C=O)NC(=O)[C@H](CC(C)C)NC(=O)[C@H](CC(C)C)NC(=O)OCc1ccccc1 [Compound 2] (Cbz-Leu-Leu-[Nva]-aldehyde)"
observable = "SI = CC50/EC50"
reported_measurement = ">33.3"

[[record]]
compound = "CC(C)C[C@H](NC(=O)OCc1ccccc1)C(=O)N[C@@H](CC(C)C)C(=O)N[C@H](C=O)Cc1ccccc1 [Compound 5] (Cbz-Leu-Leu-Phe-aldehyde)"
observable = "SI = CC50/EC50"
reported_measurement = ">33.3"


IN: Kindly indicate its recorded SI = CC50/EC50. Item: CC(C)C[C@@H](C=O)NC(=O)[C@H](Cc1ccccc1)NC(=O)[C@H](CC(C)C)NC(=O)OCc1ccccc1 [Compound 6] (Cbz-Leu-Phe-Leu-aldehyde)
OUT: 12.92

IN: Indicate its recorded SI = CC50/EC50; the compound in question is CC(C)C[C@@H](C=O)NC(=O)[C@H](CC(C)C)NC(=O)[C@H](Cc1ccccc1)NC(=O)OCc1ccccc1 [Compound 4] (Cbz-Phe-Leu-Leu-aldehyde)
OUT: 49.69

IN: Determine from records and report SI = CC50/EC50 for CC(C)C[C@@H](C=O)NC(=O)[C@H](CC(C)C)NC(=O)[C@H](CC(C)C)NC(=O)OCc1ccccc1 [Compound 1] (Cbz-Leu-Leu-Leu-aldehyde)
OUT: 22.8

IN: Please give the documented SI = CC50/EC50 of CC(C)C[C@H](NC(=O)[C@H](Cc1ccccc1)NC(=O)c1cnccn1)B(O)O [Compound 9, reference compound]
OUT: 0.22

IN: Tell me measured SI = CC50/EC50 for CC(C)C[C@@H](C=O)NC(=O)[C@H](CC(C)C)NC(=O)[C@H](CC(C)C)NC(=O)Cc1ccc(F)cc1F [Compound 8] please.
OUT: >3.84

IN: State its SI = CC50/EC50: CC(C)C[C@@H](C=O)NC(=O)[C@H](CC(C)C)NC(=O)[C@H](CC(C)C)NC(=O)c1cnccn1 [Compound 7]
OUT: >2.94

Measured values drawn from patent US20240009263A1 for this set.
